Test system: KM12
PROCEDURE_DETAILS: NCI tumour cell line growth inhibition, 48 h
The source made the active and inactive calls. No stated cut-off is given here; in the data, active = GI50 up to about 1.1 µM and inactive = higher.
// classify into active, inactive

Sample answers from the record:
// query GET /call?item= O=c1c2cc(S(=O)(=O)Nc3ccccc3Cl)ccc2ncn1NS(=O)(=O)c1ccc(Br)cc1 returns the recorded outcome of this test.
// result inactive

// query Same read-out for O=C(c1ccccc1)c1ccc(N2C(=O)/C(=C/c3ccccc3S)N=C2c2ccccc2)c(N2C(=O)/C(=C/c3ccccc3S)N=C2c2ccccc2)c1 ?
// result inactive

// query What about this compound? Nc1ccccc1CC(O)C(=O)O (stereo not given)
// result inactive

// query Follow-up entry: O=c1c2ncn(C3CCCCO3)c2n(-c2ccccc2)c(=S)n1-c1ccccc1 (stereo not given)
// result inactive

// query One more compound: COc1nc(=O)n(C2CC(N=[N+]=[N-])C(CO)O2)cc1C (stereo not given)
// result inactive

// query Could you do the same for Cn1cc(C2NC(=O)c3ccccc3N2)c2ccccc21 (stereo not given) , please?
// result active

Continuing:
// query Entry C[N+]1(CCC[N+]2(C)CC3C4C=CC(CC4)C3C2)CCOCC1 (stereo not given) : call = ?
// result inactive

// query Entry CC1(C)S[C@H](c2ccccc2C(=O)O)N[C@@H]1CC(=O)O please
// result inactive

// query Cool, now CC(C)(CO)CNc1nc(N)nc(Cl)c1C=O
// result inactive

// query Now this one: CCN(CC)CCCNc1nncc2cc3c([nH]c4ccc(OC)cc43)c(C)c12
// result inactive

// query Also Cn1c(=O)c2nc(Nc3ccccc3)[nH]c2n(C)c1=O , if possible.
// result inactive

// query Can you check Cc1cc(OCc2nnc3n2N=C(c2cc(F)c(Cl)cc2Cl)/C(=C/c2ccc(Cl)cc2)S3)ccc1Cl next?
// result inactive

// query Consider next the compound O=c1[nH]nc(Cc2ccc(Cl)cc2)n1O in the same way.
// result inactive

// query And then OCC1C(/C=C/c2ccoc2)ON2CCCC12 (stereo not given) , what is it?
// result inactive

// query Try O=C1C=C2SC3C[C@@]24CC1[N+]1=c2c4c(c(O)c4c2=C(C=N4)CC1)N3 next.
// result inactive

// query Check O=C(c1ccccc1)c1nnn(Cc2ccccc2Cn2nnc(C(=O)c3ccccc3)c2C(=O)c2ccccc2)c1C(=O)c1ccccc1 too.
// result inactive

// query Same lookup for CCCCCCCCCCCCCC(=O)NO , please.
// result inactive

// query Proceed to [O-][Cl+3]([O-])([O-])[O-].[O-][Cl+3]([O-])([O-])[O-].c1ccn2c(N3CCCC3)[n+]3c4ccccc4n4c(N5CCCC5)[n+]5ccccc5c4c3c2c1
// result inactive

// query Would you mind doing CC(C)(C)c1cc(C(=O)O)c2c(c1)C(=O)OC2(c1ccccc1)c1ccccc1C(=O)O (stereo not given) as well?
// result inactive

// query Param item: C=CC1(C)CC(=O)C2(O)C(C)(O1)C(OC(C)=O)C(O)C1C(C)(C)CCC(O)C12C (stereo not given)
// result active

----------
Consider the following compounds and their measured GI50 readings.
Tested on: BT-549
PROCEDURE_DETAILS: NCI tumour cell line growth inhibition, 48 h
Calls of active or inactive are those of the source. Cut-off read from the data, not from the text of the source: active = GI50 up to about 1.1 µM and inactive = higher.

// query Which value of GI50 has been reported for CCCCn1c(C)c2c(c1C)C(=O)N(CCN1CCN(c3ccccc3Cl)CC1)C2=O in the records?
// result 17.3 µM (inactive)

// query // same read-out, input: O=c1c(Nc2ccccc2)cn(CCOc2ccccc2)c(=O)n1CCOc1ccccc1
// result 20.8 µM (inactive)

// query What would you report for Cc1c(Cl)cccc1NC(=O)CC1Sc2ccccc2NC1=O (stereo unspecified) ?
// result 27 µM (inactive)
